SUBJECT_OF_TEST: O. bicornis nAChRs
TEST_SUMMARY: Radioligand competition binding, [3H]imidacloprid displacement from head membrane preparations
Design: species or system Osmia bicornis
CONDITIONS_USED: 576 pM radioligand, 60 min room temperature
MEASURED_PARAMETER: IC50

O=[N+]([O-])NC1=NCCN1Cc1ccc(Cl)nc1    8.3 nM

Here is the next item to consider.
For this compound ( N#C/N=C1\SCCN1Cc1ccc(Cl)nc1 ), measured IC50 is 2.4 nM

----------
LC50 values for the molecules below.
TEST_SUMMARY: in vivo
CONDITIONS_USED: in vivo; Control strain
Numbers only here, please. The scale is µg/mL.

For this molecule ( N#C/N=C1\SCCN1Cc1ccc(Cl)nc1 ), measured LC50 is 17

For this molecule ( O=[N+]([O-])NC1=NCCN1Cc1ccc(Cl)nc1 ), measured LC50 is 165
